The values you see were collected from PubChem BioAssay (NCI).

- System: 786-0 renal
- test-method-notes: NCI-60 one-dose screen, 48 h
- experimental-conditions: 10 µM unless noted
Compounds without any hit were thinned out: in the full panel of roughly 83,000, 20% have a hit. Active and inactive are the calls of the source. Rule for the calls: active = growth percent below 10; inactive = the rest.
Allowed answers: 1 (active), 0 (inactive)

Task: What outcome does the record of this test show for CCOC(=O)c1c(C)c2c(n1C)CSc1cc(S(=O)(=O)c3ccccc3)c(=O)[nH]c1-2 ?
Result: 0

Task: Tell me the recorded outcome of this test for Cc1[nH]c(C(=O)Nc2ccc(C(N)=O)cc2NC(C)C)c(Cl)c1Cl .
Result: 0

Task: Hey, what did the test say about N#Cc1c(-c2ccccc2)c(C#N)c2c(C#N)c(N)nn2c1N ?
Result: 0

Task: Assay result, entry CC(C)CCSc1nc(Nc2ccccc2)c(C#N)c(-c2ccccc2)n1 — outcome?
Result: 1

Task: Recorded test outcome, item FC(F)(F)c1[nH]ncc1-c1nc2c(N3CCCCC3)cc3[nH]ncc3c2c2c1CCCC2
Result: 1

Task: Query: recorded result category for C#Cc1cccc(Oc2ccc(NC(=O)CCl)cc2)c1 in this test
Result: 0

Task: Would you mind telling me which call this test gave CC1=NN(c2ccc(Cl)cc2)CC1(C)N=O (stereo not given) ?
Result: 0

Task: Hi team, can someone confirm the assay call for CCCCCCCCn1ccc2cc(NC(=O)Cn3cc(CN4CCCCCC4)nn3)ccc21 ?
Result: 1

Task: What call does the record list for C=CC(=O)NCCOc1cccc(Nc2cc(NCCCNC(=O)C3CCC3)c(Br)cn2)c1 ?
Result: 1

Task: Kindly provide the recorded test outcome for the following compound: CN1CCN(c2ccc(NC(=O)c3cncnc3Nc3ccc4c(ccn4Cc4cccc(F)c4)c3)cc2)CC1
Result: 1

* * *

- Tested on: SW-620 colon
- test-method-notes: NCI-60 one-dose screen, 48 h
- experimental-conditions: 10 µM unless noted
About 83,000 compounds went through this panel and 20% of them were active in at least one assay; those are over-represented in the sample as a whole. Active and inactive are the calls of the source. How the source made its calls: active means growth percent below 10; inactive means the rest.
Your reply should match one of these outcome classes. class 1 = active, class 0 = inactive

Task: Could you please tell me the result logged for O=C(/C=C/c1cccc(Cl)c1)c1cccc(OCCCCOc2cccc(C(=O)/C=C/c3cccc(Cl)c3)c2)c1 in this assay?
Result: class 0

Task: Which outcome did this test record for the compound Cc1c(Cl)cccc1C(=O)Nc1nc2c(s1)CN(C(=O)Nc1cccc(C(F)(F)F)c1)CC2 ?
Result: class 0

Task: Please share the test call associated with CSCCC(NC(=O)c1ccccc1)C(=O)N/N=C1\S/C(=C/c2ccc(Cl)cc2)C(=O)N1C (stereo not given) .
Result: class 0

Task: Kindly provide the recorded test outcome for the following compound: C/C(=C(/c1ccc(Cl)cc1)c1ccc(OCCCN(C)C)cc1)c1ccc(Cl)cc1
Result: class 0

Task: I'd appreciate the recorded outcome for Cn1cccc1/C=C1\C(=O)Nc2ccccc21 from this test.
Result: class 0

Task: What did this assay record as the result for Cn1cc(-c2nn3cc(-c4ccccc4)nc3s2)c2ccccc21 ?
Result: class 0

Task: What did the test return for CN1CCN(Cc2cc(NC(=O)c3cccc(C#Cc4cccc5[nH]nc(N)c45)c3)cc(C(F)(F)F)c2)CC1 ?
Result: class 1

Task: Hello, I am checking results. What call was entered for C=C(CO)[C@@H]1CC[C@]2(COC3CCCCO3)CC[C@]3(C)[C@H](CC[C@@H]4[C@@]5(C)C=C(C=O)C(=O)C(C)(C)[C@@H]5CC[C@]43C)[C@@H]12 (stereo not given in full) ?
Result: class 1

Task: State the result this test recorded for NC(=O)c1ccc(NC(=O)c2oc3ccccc3c2-c2cnn(-c3ccccc3)c2)cc1 .
Result: class 0

Task: What call does the record list for COc1cc2c3c(c1O)-c1ccccc1[C@@H]1OC(=O)N(CC2)[C@H]31 ?
Result: class 0

Task: Test call for this compound, please: CCCNc1nc2ccccc2c2c(=O)c3cccc(Cl)c3sc12
Result: class 0

Task: Look up the recorded call for C=CCOC(=O)C1=C(C)NC(=O)NC1c1c(Cl)n(C)c2ccccc12 (stereo not given) in this test.
Result: class 0

Task: # outcome recorded in this test, key = N/C(=N\c1nc2ccccc2s1)NC(=NC1CCCCC1)NC1CCCCC1
Result: class 1

Task: Record request — test call for CN1CCCc2cc(/C=C3/SC(=S)N(CCc4ccc(O)cc4)C3=O)ccc21
Result: class 0

Task: Per the assay record, what outcome was assigned to CCNc1nc(-c2ccc(F)cc2)c(C#N)c(=O)n1C ?
Result: class 0

Task: Entry CN1CCN(CCCOc2ccc3ncnc(Nc4ccc(Oc5cccc(F)c5)c(Cl)c4)c3c2)CC1 : call = ?
Result: class 1

Task: Assay outcome for CC1O[C@@H]2C[C@@](O)([C@H]1O)n1c3ccccc3c3c4c(c5c6ccccc6n2c5c31)C(=O)NC4=O (stereo not given in full) : what was it?
Result: class 0

Task: For O=C(CCCCl)NNc1nccc(Nc2ccc(S(=O)(=O)Nc3ccncc3)cc2)n1 , which call appears in the assay record?
Result: class 0

Task: GET /call?item= COc1ccc2cc(-c3cnc4nonc4n3)ccc2c1 returns the recorded outcome of this test.
Result: class 0

Task: Write down the call the test reported for this compound. Item: COc1ccc2[nH]cc(-c3nc(-c4cn(C)c5ccncc45)cs3)c2c1
Result: class 1

* * *

- Test system: MOLT-4 leukemia
- test-method-notes: NCI-60 one-dose screen, 48 h
- experimental-conditions: 10 µM unless noted
This is part of a sample that, as a whole, favours compounds with a hit. Of some 83,000 tested, about 20% had one in any assay. The source made the active and inactive calls. Rule for the calls: active = growth percent below 10; inactive = the rest.
A correct response names exactly one class from active, inactive

Task: Outcome logged for O=C1/C(=C/c2ccc(Br)cc2)COc2ccc(O)c(O)c21 in this assay:
Result: active

Task: What outcome does the record of this test show for CC1(C)CC[C@]2(C(=O)N3CCOCC3)CC[C@]3(C)C(=CC[C@@H]4[C@@]5(C)C/C(=C/c6ccncc6)C(=O)C(C)(C)[C@@H]5CC[C@]43C)[C@@H]2C1 ?
Result: active

Task: In this assay, the call recorded for O=C(Nc1ccccc1O)c1ccccc1Nc1ccnc(C(F)(F)F)c1 was what?
Result: inactive

Task: Status in this test for Cc1c2cc[nH]c(=O)c2c(C)c2c1[nH]c1ccc(OC(=O)c3ccccc3)cc12 ?
Result: active

Task: Hi, do you know how CC(C)(CO)N(CCO)CCO came out in this test?
Result: inactive

Task: Hi, sorry to bother you, what did the test record for COc1ccc(C2CC(c3ccc(Nc4nc(Nc5ccc(F)cc5)nc(Nc5ccc(F)cc5)n4)cc3)=NN2C(C)=O)cc1 (stereo not given) ?
Result: inactive

Task: Status in this test for O=C1CC2C=CCN2C=C1NC(=O)C1CCCCC1 (stereo not given) ?
Result: inactive

Task: Hello, I am checking results. What call was entered for CCC(CC)(N(CC(=O)O)CC(=O)O)C(CC)(CC)N(CC(=O)O)CC(=O)O ?
Result: inactive

Task: State the result this test recorded for Cc1cc(F)ccc1S(=O)(=O)Nc1cc(-c2c(O)ccc3ccccc23)c(O)c2ccccc12 .
Result: inactive

Task: For O=C(CCCCCCN1CC(=O)N2[C@@H](C3CCCCC3)c3[nH]c4ccccc4c3C[C@H]2C1=O)NO , what call appears in the results of this test?
Result: inactive

Task: // return assay outcome for C#CCOc1cccc(-c2ncc3cc(NC(=O)CCl)ccc3n2)c1
Result: active

Task: What classification did Cc1ccc(-c2csc(NC(=O)N3CCN(c4cc5c(cc4F)c(=O)c(C(=O)O)cn5C4CC4)CC3)n2)cc1 end up with in this test?
Result: active

Task: Assay outcome for O=C(CBr)CN1C(=O)c2ccccc2C1=O : what was it?
Result: inactive

Task: Could you please tell me the result logged for CCCCc1oc2ccccc2c1C(=O)c1ccc(O)cc1 in this assay?
Result: inactive

Task: What did this assay record as the result for Cc1ccccc1CNc1c2ccccc2nc2ccccc12 ?
Result: active

Task: What was the test verdict on CCCCN1C(=O)/C(=c2\sc3n(c2=O)NC2C(N=3)N(CC)C(=O)N2CC)c2ccccc21 (stereo not given) ?
Result: inactive

Task: Can you look up the reported call for FC(F)(F)c1[nH]ncc1-c1nc2c(N3CCCCC3)cc3[nH]ncc3c2c2c1CCCC2 for me?
Result: active

Task: Hi, sorry to bother you, what did the test record for O=C1NC(=Nc2ccc(O)cc2)S/C1=C\c1cccs1 ?
Result: inactive

Task: GET /call?item= CCOC(=O)n1cc(-c2nonc2-c2cn(C)c3ccccc23)c2ccccc21 returns the recorded outcome of this test.
Result: inactive

Task: Identify the outcome logged in this assay for the compound shown: NC(=O)c1ccc(NC(=O)c2oc3ccccc3c2-c2cnn(-c3ccccc3)c2)cc1
Result: inactive

* * *

Would you kindly list growth for each of these compounds?
- Test system: NCI/ADR-RES ovarian
- test-method-notes: NCI-60 one-dose screen, 48 h (100 = growth as untreated, 0 = no growth, -100 = all killed)
- experimental-conditions: 10 µM unless noted
The panel holds about 83,000 compounds, 20% with a hit somewhere; the sample as a whole holds those more often.
Express the result in % but write the number alone.

Task: growth for COc1ccc(C/C(C)=C(/c2ccc(OCCN3CCCCCC3)cc2)c2ccc(OC(=O)NCc3ccccc3)cc2)cc1 ?
Result: 86.8

Task: Using the record for O=C(CCCCCCN1CC(=O)N2[C@@H](C3CCCCC3)c3[nH]c4ccccc4c3C[C@H]2C1=O)NO , report its growth.
Result: 105

Task: For N/C(=N\c1nc2ccccc2s1)NC(=NC1CCCCC1)NC1CCCCC1 , what is its reported growth?
Result: 15

Task: Requested field: growth. Item: Cn1c(O)c(C(/C=C/c2ccccc2)=Nc2ccccc2N)c(=O)n(C)c1=O
Result: 96.5

Task: Endpoint output: growth of COc1cc(C(=O)c2c(N)ncn2-c2ccccc2)cc(OC)c1OC . Value?
Result: 82.5
